Cited source: patent US9549926B2

# experimental-details: Free plasma concentration in the rat PAH study
# Format: in vivo
# details: Sprague-Dawley, 10 mpk, TAD (10 mpk), administered separately, read-out: free or unbounded plasma concentration
metric: concentration at 3 weeks

Give the measured concentration at 3 weeks of CN1CC(=O)N2[C@H](c3ccc4c(c3)OCO4)c3[nH]c4ccccc4c3C[C@@H]2C1=O . ~0.024 µM

====

# experimental-details: Free plasma concentration in the rat PAH study
# Format: in vivo
# details: Sprague-Dawley, AMB 1 mpk, administered along with TAD, read-out: free or unbounded plasma concentration
# Method: Rats were dosed with vehicle (0.5% hydroxypropyl methylcellulose (HPMC), 0.2% Tween 80, and 0.9% benzyl alcohol in water), AMB or TAD (quaque die) beginning the day they were placed in chambers. Plasma was collected when animals were terminated. The free or unbounded plasma concentration for 10 mpk AMB dosing was about 104 nM in both cases. […]
metric: concentration at 3 weeks

Give the measured concentration at 3 weeks of COC(c1ccccc1)(c1ccccc1)[C@H](Oc1nc(C)cc(C)n1)C(=O)O . ~13 nM
